Test system: T47D
protocol.notes: NCI tumour cell line growth inhibition, 48 h
Activity calls are given as the source filed them. Rule as the data show it: active = GI50 up to about 1.1 µM and inactive = higher.
# reported GI50; entries follow
reported.metric: GI50

{"compound": "O=c1c2c(no[n+]2[O-])c2ccccc2n1-c1ccccc1", "result": "12.9 µM (inactive)"}
{"compound": "COC(=O)C(CC(C)C)NC(=O)C(NC(=O)c1ccc(-c2ccc(Cl)cc2Cl)o1)C(C)C (stereo not drawn)", "result": "15.3 µM (inactive)"}
{"compound": "CCN1CCC(O)(/C=C/c2ccc(OC)cc2)C(C(=O)/C=C/c2ccc(OC)cc2)C1 (stereo not drawn)", "result": "6.04 µM (inactive)"}
{"compound": "COC(=O)CCN1CCN(CCO)CC1C (stereo not drawn)", "result": "> 10 µM (inactive)"}
{"compound": "O=C1C(c2c(O)[nH]c3ccc(Br)cc23)=Nc2ccc(Br)cc21", "result": "> 100 µM (inactive)"}
{"compound": "CC[C@@H]1/C=C/C=C/C[C@H](C)[C@@H](O)[C@](C)(O)C(=O)[C@H](C)[C@@H](O)[C@H](C)C(=O)[C@H](C)[C@@H](O)[C@H](C)/C=C/C(=O)O[C@H]2[C@@H](C)[C@@H](CC1)O[C@@]1(CC[C@@H](C)[C@@H](CC(C)O)O1)[C@@H]2C (stereo partly drawn)", "result": "< 0.01 µM (active)"}
{"compound": "O=c1c(-c2ccc(Cl)cc2)nnc2n(Cc3ccccc3)c3ccccc3n12", "result": "67.9 µM (inactive)"}
{"compound": "C[C@]12Cc3cnn(-c4ccc(F)cc4)c3NC1CC[C@@H]1C2CC[C@@]2(C)C1CC[C@@H]2O (stereo partly drawn)", "result": "2.65 µM (inactive)"}

====

Test system: A549
protocol.notes: NCI tumour cell line growth inhibition, 48 h
Activity calls are given as the source filed them. No stated cut-off is given here; in the data, active = GI50 up to about 1.1 µM and inactive = higher.
Possible outcomes: 1 (yes) = active, 0 (no) = inactive

{"compound": "CC1=C2C(=CC(C)(C)[C@@H]2O)C(=O)[C@](C)(O)C12CC2", "classification": "1 (yes)"}
{"compound": "COc1cccc(NC(=O)/C(Cc2nc3ccccc3nc2C)=N/NC(=O)C[n+]2ccccc2)c1", "classification": "0 (no)"}
{"compound": "O=C1C=CC(=O)c2cc(Sc3ccccc3)c(=O)ccc21", "classification": "0 (no)"}
{"compound": "COc1ccc2nc3ccccc3c(NCCCCCN(CCCl)CCCl)c2c1", "classification": "1 (yes)"}
{"compound": "CC(N/N=C(\\S)N1CCN(c2ccccn2)CC1)c1nccc2ccccc12 (stereo not given)", "classification": "0 (no)"}
{"compound": "COc1nncc2[nH]c(-c3ccccc3)cc12", "classification": "0 (no)"}
{"compound": "CNC(=O)ON(C(C)=O)C(=O)NC [CARACEMIDE]", "classification": "0 (no)"}
{"compound": "COc1ccc(-c2c(C(C)=O)c(C)n(C3OC(COC(C)=O)C(OC(C)=O)C(OC(C)=O)C3OC(C)=O)c(=S)c2C#N)cc1 (stereo not given)", "classification": "0 (no)"}
{"compound": "CC(=O)N1c2ccccc2[C@H]2CCc3c([nH]c4ccccc34)[C@H]21", "classification": "0 (no)"}
{"compound": "COc1cc(C2c3cc4c(cc3OC3(OC)COC(=O)C23)OCO4)cc(OC)c1OC(C)=O (stereo not given)", "classification": "0 (no)"}
{"compound": "CC(C)C(C)/C=C\\C(C)C1CCC2C3=CC=C4CC(O)CCC4(C)C3CCC21C (stereo not given)", "classification": "0 (no)"}
{"compound": "COc1ccc2c(ccc3c(C(=O)NCCCN(C)CCCNC(=O)c4cn(C)c5c4ccc4cc(OC)ccc45)cn(C)c32)c1", "classification": "0 (no)"}
{"compound": "N#Cc1ccc(C2Oc3ccc(Cl)cc3C=C2[N+](=O)[O-])cc1 (stereo not given)", "classification": "0 (no)"}
{"compound": "O=C1/C(=C\\c2cccc(Oc3ccccc3)c2)SC(c2ccccc2)N1c1cccc(Cl)c1 (stereo not given)", "classification": "0 (no)"}
{"compound": "N=S(=O)(c1ccccc1)c1ccccc1[N+](=O)[O-] (stereo not given)", "classification": "0 (no)"}
{"compound": "CCCCC1C=Cn2c(=O)oc3c(OC(C)C)c(C)c(O)c1c32 (stereo not given)", "classification": "0 (no)"}
{"compound": "COc1cc(/C=C/c2ccc(OC)c(OC)c2OC)cc(OC)c1OC", "classification": "0 (no)"}
{"compound": "Cc1ccc(NC(=O)OCC(COc2ccc(Cl)cc2)OC(=O)Nc2ccc(C)cc2)cc1 (stereo not given)", "classification": "0 (no)"}
{"compound": "COC1OC2COC(C)(C)OC2C(OC(C)=O)C1NC(=O)N(CCCl)N=O (stereo not given)", "classification": "0 (no)"}
{"compound": "O=C(NCCC1CN(S(=O)(=O)C(F)(F)F)c2ccccc21)OCc1ccccc1 (stereo not given)", "classification": "0 (no)"}

====

System: UACC-257
protocol.notes: NCI tumour cell line growth inhibition, 48 h
Calls of active or inactive are those of the source. Cut-off read from the data, not from the text of the source: active = GI50 up to about 1.1 µM and inactive = higher.
reported.metric: GI50

{"compound": "COc1ccc(/C=C/C(=O)NCC(NC(=O)/C=C/c2ccc(OC)c(OC)c2)C(=O)O)cc1OC (stereo not given)", "result": "> 100 µM (inactive)"}
{"compound": "N#C/N=C1\\NCCC(=O)N1CCc1c[nH]c2ccccc12", "result": "> 100 µM (inactive)"}
{"compound": "O=C(CN1c2ccccc2Sc2ccccc21)N1CCNCC1", "result": "> 100 µM (inactive)"}
{"compound": "Cc1nn2c(=O)c([N+](=O)[O-])c(/C=C/c3ccccc3)nc2s1", "result": "8.57 µM (inactive)"}
{"compound": "CC(C)c1c(O[Si](C(C)C)(C(C)C)C(C)C)c2c3c(ccc4c3c1OC4(C)C)C(C)CC2 (stereo not given)", "result": "> 100 µM (inactive)"}
{"compound": "CCc1cccc(C)c1NC(=O)CC1C(=O)Nc2ccccc2[S+]1[O-] (stereo not given)", "result": "31.8 µM (inactive)"}
{"compound": "S=C(N/N=C(\\c1ccccc1)c1ccccn1)NC1CCCCC1", "result": "2.24 µM (inactive)"}
{"compound": "N=S(=O)(c1ccccc1)c1ccccc1[N+](=O)[O-] (stereo not given)", "result": "> 100 µM (inactive)"}
{"compound": "CCCCCC(C)SC1(C(=O)OC)CC(OC(C)=O)C(NC(C)=O)C([C@H](OC(C)=O)[C@@H](COC(C)=O)OC(C)=O)O1 (stereo not given in full)", "result": "33 µM (inactive)"}
{"compound": "CCCCNC(=O)N/C=C1\\C(=O)Oc2ccccc2C1=O", "result": "55.7 µM (inactive)"}

====

System: MDA-N
protocol.notes: NCI tumour cell line growth inhibition, 48 h
The source made the active and inactive calls. No stated cut-off is given here; in the data, active = GI50 up to about 1.1 µM and inactive = higher.
Possible outcomes: active, inactive

{"compound": "CNC(=O)ON(C(C)=O)C(=O)NC [CARACEMIDE]", "target.or.test.system": "MDA-N", "classification": "inactive"}
{"compound": "O=c1[nH]c2ccc(CC(=S)N3CCN(c4ccccc4)CC3)cc2s1", "target.or.test.system": "MDA-N", "classification": "inactive"}
{"compound": "CN(C)CCN1C(=O)N(CCN(C)C)c2c3cc(O)ccc3nc3c([N+](=O)[O-])ccc1c23", "target.or.test.system": "MDA-N", "classification": "inactive"}
{"compound": "O=C(N/N=C\\c1ccc(Cl)cc1)Nc1cccc2ccccc12", "target.or.test.system": "MDA-N", "classification": "inactive"}
{"compound": "COc1cc(CCNC2=CC(=O)c3nc[nH]c3C2=O)ccc1O", "target.or.test.system": "MDA-N", "classification": "inactive"}
{"compound": "CC1(C)c2ccccc2C(O)C12CCC(=O)CC2 (stereo unspecified)", "target.or.test.system": "MDA-N", "classification": "inactive"}
{"compound": "CCOC(=O)c1c2ccccc2n2c(N)c(C(N)=O)nnc12", "target.or.test.system": "MDA-N", "classification": "inactive"}
{"compound": "[O-][S+](CCc1ccccc1)Nc1ccccc1 (stereo unspecified)", "target.or.test.system": "MDA-N", "classification": "inactive"}
{"compound": "COc1ccc2nc3ccccc3c(NCCCCCN(CCCl)CCCl)c2c1", "target.or.test.system": "MDA-N", "classification": "active"}
{"compound": "CC12CCC(C1)C(C)(C)C2OC(=O)c1ccccc1C(=O)O (stereo unspecified)", "target.or.test.system": "MDA-N", "classification": "inactive"}
{"compound": "CCc1n[nH]c(=O)n1N=C(c1ccccc1)c1ccccc1", "target.or.test.system": "MDA-N", "classification": "inactive"}
{"compound": "O=c1cc(/N=N\\c2ccc(Cl)cc2)[nH]c(=O)[nH]1", "target.or.test.system": "MDA-N", "classification": "inactive"}
{"compound": "CC(=O)Oc1ccc(-c2cc3ccccc3oc2=O)cc1OC(C)=O", "target.or.test.system": "MDA-N", "classification": "inactive"}
{"compound": "C=C(C)[C@@H]1CC[C@]2(CO)CC[C@]3(C)[C@H](CC[C@@H]4[C@@]5(C)CC[C@H](O)C(C)(C)[C@@H]5CC[C@]43C)[C@@H]12", "target.or.test.system": "MDA-N", "classification": "inactive"}
{"compound": "COc1ccc(-c2nnc(CCCCCCCCc3nnc(-c4ccc(OC)cc4)o3)o2)cc1", "target.or.test.system": "MDA-N", "classification": "inactive"}
{"compound": "CC(CCOc1ccc2ccc(=O)oc2c1)C1=CC(=O)C(C)(C)O1 (stereo unspecified)", "target.or.test.system": "MDA-N", "classification": "inactive"}
{"compound": "CC(CNC(=O)c1ccccc1)(CNC(=O)c1ccccc1)[N+](=O)[O-]", "target.or.test.system": "MDA-N", "classification": "inactive"}
{"compound": "O=[N+]([O-])c1ccc(Oc2c(Cl)cc(S(=O)(=O)N/C(=N\\O)Nc3ccc(Cl)cc3)cc2Cl)c(Cl)c1", "target.or.test.system": "MDA-N", "classification": "inactive"}
{"compound": "Nc1nc(-[n+]2ccc(-c3ccncc3)cc2)nc(Cl)c1Cl", "target.or.test.system": "MDA-N", "classification": "inactive"}
{"compound": "CCNC(=S)/N=c1\\sc(NCC)nc2sc3c(c12)CCN(N1CCc2c(sc4nc(NCC)s/c(=N\\C(=S)NCC)c24)C1)C3", "target.or.test.system": "MDA-N", "classification": "inactive"}
{"compound": "C[C@]12Cc3cnn(-c4ccc(F)cc4)c3NC1CC[C@@H]1C2CC[C@@]2(C)C1CC[C@@H]2O (stereo partly specified)", "target.or.test.system": "MDA-N", "classification": "inactive"}
